B1: SLC19A2 (parent)
chain: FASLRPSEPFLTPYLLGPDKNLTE

Variants of: B1
Test: protein stability index of a GFP-peptide fusion (GPS, HEK-293T) (PSI 1-6); higher = more stable;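 note: lentivirally expressed fusions sorted by FACS into six bins by GFP to DsRed ratio, PSI derived from sequencing read proportions per bin multiplied by bin number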
Settings: c terminus: a fixed tail appended
endpoint-label: protein stability index

* L11Q | 2.09
* Y14R | 2.87
* P13I | 2.91
* F1H | 3.58
* D19H | 1.57
* P6C | 1.99
* F1T | 3.44
* G17R | 1.99
* L16A | 2.31
* R5N | 1.68
* N21Q | 1.88
* E24V | 1.49
* R5I | 2.13
* L22S | 2.1
* E24W | 2.43
* L15G | 1.77
* F1S | 4.12
* P18V | 1.41
* E24S | 1.94
* L11F | 2.63
* P18N | 1.48
* L15W | 1.44
